Give measured Determined concentration Rep 1 for each item. Keep answers brief.
- experimental protocol: Aqueous solubility assay
- Format: physicochemical
- conditions used: PBS pH 7.4, 4 h, room temperature; replicate 1
Provide only the numeric value, understood in µM.

Field Determined concentration Rep 1 (entry CC(C)C[C@@H]1NC(=O)[C@H](CCCCN)NC(=O)[C@@H]2CCCN2[C@H](C(=O)NC(C)(C)C)[C@H](C)NC(=O)[C@H]([C@@H](C)O)NC(=O)[C@H](CC(=O)O)NC1=O [UM0132376-01] ) reads 990.7

Data point: CC(C)C[C@@H]1NC(=O)[C@H](Cc2cscn2)NC(=O)[C@@H]2CCCN2[C@H](C(=O)NC(C)(C)C)[C@H](C)NC(=O)[C@H]([C@@H](C)O)NC(=O)[C@H](CC(=O)O)NC1=O [UM0132370-01] ; Determined concentration Rep 1 = 187.0

Measured Determined concentration Rep 1 of CC(C)C[C@@H]1NC(=O)c2cccc(c2)CNC(=O)[C@@H]2CCCN2[C@H](C(=O)NC(C)(C)C)[C@H](C)NC(=O)[C@H]([C@@H](C)O)NC(=O)[C@H](CC(=O)O)NC1=O [UM0134690-01] : 957.3

// sample CC(C)C[C@@H]1NC(=O)[C@@H](Cc2ccncc2)NC(=O)[C@@H]2CCCN2[C@H](C(=O)NC(C)(C)C)[C@H](C)NC(=O)[C@H]([C@@H](C)O)NC(=O)[C@H](CC(=O)O)NC1=O [UM0134700-01] , its Determined concentration Rep 1 was 1044.8

// recorded Determined concentration Rep 1 for CC(C)C[C@@H]1NC(=O)[C@H](Cc2ccc(O)cc2)NC(=O)[C@@H]2CCCN2[C@H](C(=O)NC(C)(C)C)[C@H](C)NC(=O)[C@H]([C@@H](C)O)NC(=O)[C@H](CC(=O)O)NC1=O [UM0131995-05] : 883.9

Just so you know, measured Determined concentration Rep 1 for C=CCOc1ccc(C[C@@H]2NC(=O)[C@@H]3CCCN3[C@H](C(=O)NC(C)(C)C)[C@H](C)NC(=O)[C@H]([C@@H](C)O)NC(=O)[C@H](CC(=O)O)NC(=O)[C@H](CC(C)C)NC2=O)cc1 [UM0132371-01] came out at 786.7

So for CC(C)C[C@@H]1NC(=O)C2(CCCC2)NC(=O)[C@@H]2CCCN2[C@H](C(=O)NC(C)(C)C)[C@H](C)NC(=O)[C@H]([C@@H](C)O)NC(=O)[C@H](CC(=O)O)NC1=O [UM0132368-01] , the logged Determined concentration Rep 1 turned out to be 926.3

For record CSCC[C@@H]1NC(=O)[C@@H]2CCCN2[C@H](C(=O)NC(C)(C)C)[C@H](C)NC(=O)[C@H]([C@@H](C)O)NC(=O)[C@H](CC(=O)O)NC(=O)[C@H](CC(C)C)NC1=O [UM0132374-01] the listed Determined concentration Rep 1 is 179.4

The molecule CC(C)C[C@@H]1NC(=O)[C@H](Cc2ccc(O)cc2)NC(=O)[C@H](C)NC(=O)[C@@H]2CCCN2[C@H](C(=O)NC(C)(C)C)[C@H](C)NC(=O)[C@H]([C@@H](C)O)NC(=O)[C@H](CC(=O)O)NC1=O [UM0134830-01] showed Determined concentration Rep 1 equal to 1012.0

====

Give measured Selectivity ELISA for each item. Keep answers brief.
- tgt: integrin α4β7 (Homo sapiens, UniProt P13612+P26010)
- Sequence (P13612 34-977 limits assumed): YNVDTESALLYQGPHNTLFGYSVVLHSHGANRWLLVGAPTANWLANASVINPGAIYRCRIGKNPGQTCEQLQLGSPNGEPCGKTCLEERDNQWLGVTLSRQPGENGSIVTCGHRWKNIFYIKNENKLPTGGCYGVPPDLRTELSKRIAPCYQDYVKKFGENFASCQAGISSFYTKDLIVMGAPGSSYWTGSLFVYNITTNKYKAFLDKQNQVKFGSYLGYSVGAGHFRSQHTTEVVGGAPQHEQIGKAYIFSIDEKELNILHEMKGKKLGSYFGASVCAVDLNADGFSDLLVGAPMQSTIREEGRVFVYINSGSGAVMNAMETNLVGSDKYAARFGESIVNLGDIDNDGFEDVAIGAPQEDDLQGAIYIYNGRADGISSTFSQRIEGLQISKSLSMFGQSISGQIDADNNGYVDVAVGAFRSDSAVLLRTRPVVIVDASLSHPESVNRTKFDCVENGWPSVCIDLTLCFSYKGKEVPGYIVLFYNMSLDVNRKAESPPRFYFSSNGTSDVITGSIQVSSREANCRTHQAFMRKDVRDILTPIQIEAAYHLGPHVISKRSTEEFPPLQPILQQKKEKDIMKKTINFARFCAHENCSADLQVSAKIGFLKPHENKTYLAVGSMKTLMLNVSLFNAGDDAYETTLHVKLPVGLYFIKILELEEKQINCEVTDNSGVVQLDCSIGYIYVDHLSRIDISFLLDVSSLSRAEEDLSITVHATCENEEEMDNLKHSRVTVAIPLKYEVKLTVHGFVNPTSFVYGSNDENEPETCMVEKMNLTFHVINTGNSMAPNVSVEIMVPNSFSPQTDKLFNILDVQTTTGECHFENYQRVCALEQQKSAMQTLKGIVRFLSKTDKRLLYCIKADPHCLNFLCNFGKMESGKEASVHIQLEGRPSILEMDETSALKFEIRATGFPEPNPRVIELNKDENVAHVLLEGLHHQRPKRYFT
- Sequence (P26010 20-723 limits assumed): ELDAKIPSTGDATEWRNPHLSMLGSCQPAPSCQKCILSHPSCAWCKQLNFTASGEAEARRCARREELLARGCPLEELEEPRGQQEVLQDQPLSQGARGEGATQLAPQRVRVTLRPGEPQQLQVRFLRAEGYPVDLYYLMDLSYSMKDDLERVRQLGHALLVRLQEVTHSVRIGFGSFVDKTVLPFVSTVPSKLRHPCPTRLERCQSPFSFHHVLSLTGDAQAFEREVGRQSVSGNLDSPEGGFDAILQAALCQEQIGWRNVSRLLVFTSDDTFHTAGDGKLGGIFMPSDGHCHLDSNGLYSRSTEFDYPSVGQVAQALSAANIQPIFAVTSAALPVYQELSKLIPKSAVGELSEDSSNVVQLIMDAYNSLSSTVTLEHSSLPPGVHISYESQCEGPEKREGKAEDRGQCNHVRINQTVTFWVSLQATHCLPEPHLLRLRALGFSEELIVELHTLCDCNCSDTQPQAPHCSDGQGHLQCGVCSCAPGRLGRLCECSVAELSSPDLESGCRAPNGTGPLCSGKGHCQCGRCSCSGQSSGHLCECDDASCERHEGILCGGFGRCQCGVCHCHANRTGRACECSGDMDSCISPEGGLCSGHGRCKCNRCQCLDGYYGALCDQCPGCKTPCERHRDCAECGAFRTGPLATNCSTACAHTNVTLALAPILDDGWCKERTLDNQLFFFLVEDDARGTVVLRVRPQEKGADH
- experimental protocol: Integrin α4β7—MAdCAM-1 competition assay (ELISA)
- Assay type: binding
- conditions used: ratio a4b1 ELISA IC50 / a4b7 ELISA IC50

Assay integrin α4β7 (Homo sapiens, UniProt P13612+P26010), sample CC(C)C[C@@H]1NC(=O)C[C@H](CCCCN)NC(=O)C2(CCNCC2)NC(=O)[C@@H]2CCCN2[C@H](C(=O)NC(C)(C)C)[C@H](C)NC(=O)[C@H]([C@@H](C)O)NC(=O)[C@H](CC(=O)O)NC1=O [Compound 275] , Selectivity ELISA read: 7.7

The value of Selectivity ELISA recorded for CC(C)C[C@@H]1NC(=O)C[C@H](CCCCN)NC(=O)[C@](C)(Cc2ccccc2)NC(=O)[C@@H]2CCCN2[C@H](C(=O)NC(C)(C)C)[C@H](C)NC(=O)[C@H]([C@@H](C)O)NC(=O)[C@H](CC(=O)O)NC1=O [Compound 263] when tested on integrin α4β7 (Homo sapiens, UniProt P13612+P26010) reads 23.1

Value (Selectivity ELISA, integrin α4β7 (Homo sapiens, UniProt P13612+P26010)) for record CC(C)C[C@@H]1NC(=O)C[C@H](CCCCN)NC(=O)[C@H](Cc2ccc(I)cc2)NC(=O)[C@@H]2CCCN2[C@H](C(=O)NC(C)(C)C)[C@H](C)NC(=O)[C@H]([C@@H](C)O)NC(=O)[C@H](CC(=O)O)NC1=O [Compound 260] = 58.1

CC(C)C[C@@H]1NC(=O)c2ccc(-c3cccc4ncccc34)c(c2)CNC(=O)[C@@H]2CCCN2[C@H](C(=O)NC(C)(C)C)[C@H](C)NC(=O)[C@H]([C@@H](C)O)NC(=O)[C@H](CC(=O)O)NC1=O [Compound 347] tested on integrin α4β7 (Homo sapiens, UniProt P13612+P26010) gave Selectivity ELISA: 1.3

Summary line: CC(C)C[C@@H]1NC(=O)[C@H](Cc2ccc3ccccc3c2)NC(=O)[C@@H]2CCCN2[C@H](C(=O)NC(C)(C)C)[C@H](C)NC(=O)[C@H]([C@@H](C)O)NC(=O)[C@H](CC(=O)O)NC1=O [Compound 10] , integrin α4β7 (Homo sapiens, UniProt P13612+P26010), reported Selectivity ELISA = 1.3

Assay integrin α4β7 (Homo sapiens, UniProt P13612+P26010), sample CC[C@H](C)[C@@H]1NC(=O)[C@H](CC(=O)O)NC(=O)[C@H](CC(C)C)NC(=O)C[C@H](CCCCN)NC(=O)[C@@H](Cc2ccc(CN)cc2)NC(=O)[C@@H]2CCCN2[C@H](C(=O)NC(C)(C)C)[C@H](C)NC1=O [Compound 253] , Selectivity ELISA read: 15.6

Sample Cc1cccc(C)c1-c1cccc(C[C@@H]2NC(=O)[C@@H]3CCCN3[C@H](C(=O)NC(C)(C)C)[C@H](C)NC(=O)[C@H]([C@@H](C)O)NC(=O)[C@H](CC(=O)O)NC(=O)[C@H](CC(C)C)NC(=O)C[C@H](CCCCN)NC2=O)c1 [Compound 265] , system: integrin α4β7 (Homo sapiens, UniProt P13612+P26010). Its Selectivity ELISA is 46.2

For the compound CC(C)C[C@@H]1NC(=O)C[C@H](CCCCN)NC(=O)[C@H](Cc2ccccc2-c2ccc(N3CCNCC3)cc2)NC(=O)[C@@H]2CCCN2[C@H](C(=O)NC(C)(C)C)[C@H](C)NC(=O)[C@H]([C@@H](C)O)NC(=O)[C@H](CC(=O)O)NC1=O [Compound 271] , the measured Selectivity ELISA on integrin α4β7 (Homo sapiens, UniProt P13612+P26010) was 34.6

All figures here come from patent US11072616B2.
